Hey, just so you know, these numbers are from PubChem BioAssay (NCI).

# System: SN12C renal
# assay-explanation: NCI tumour cell line growth inhibition, 48 h
quantity-name: TGI

For orientation, consider the following solved cases.
>>> result("N#CCCCC[N+]12CN3CN(CN(C3)C1)C2")
"> 100 µM"
>>> result("CCOC(=O)N1CCc2cc(OC)c(OC)c3c2c1cc1cc(OC)c(OC)cc13")
"> 100 µM"
>>> result("CCOP(=O)(CCCC(O)CNc1cc(Cl)nc(N)n1)OCC (stereo not given)")
"> 100 µM"
>>> result("N#Cc1c(Cl)cccc1Oc1ccc(S(=O)(=O)/N=C(\\NN)Nc2ccc(Cl)cc2)cc1")
"64 µM"
>>> result("CC(C)c1ccc(C2C3=C(N=C4SCC(=O)N42)C(=O)c2ccccc23)cc1 (stereo not given)")
"> 100 µM"
>>> result("FC(F)(Sc1ccccn1)c1nc2ccccc2o1")
"> 100 µM"
>>> result("Cn1c(=O)nc2n(-c3cccc(Br)c3)c3ccccc3nc-2c1=O")
"17.1 µM"
>>> result("Cc1ccc(/C=C2/SC(Nc3nc(-c4csc(NC5=NC(=O)/C(=C\\c6ccc(C)cc6)S5)n4)cs3)=NC2=O)cc1")
"> 50 µM"

# TGI of CC1(C)O[C@@H]2[C@@H](COC(=O)c3ccccc3)C[C@@H](C#N)[C@@H]2O1 = > 100 µM

The measured TGI associated with Fc1ccc2c(c1)c(-c1nc(-c3c[nH]c4ncccc34)cs1)cn2CCCN1CCCCC1 reads 3.31 µM

----------
# System: CCRF-CEM leukemia
# assay-explanation: NCI tumour cell line growth inhibition, 48 h; in the data active = GI50 below about 0.43 µM; inactive = the rest
Permitted responses: active, inactive

Worked cases, answers included:
>>> class_label("C=CC(=O)N1CCN(c2nc(=O)n(-c3c(C)ccnc3C(C)C)c3nc(-c4c(O)cccc4F)c(F)cc23)[C@@H](C)C1")
"inactive"
>>> class_label("CC1(C)N=C(N)N=C(N)N1c1ccc(OCCCCOc2ccc(S(=O)(=O)F)cc2)c(Cl)c1")
"active"
>>> class_label("C=C(CN1C(=O)[C@H]2CCCN2C(=O)c2ccccc21)c1ccc(C(=O)O)cc1")
"inactive"

Returns: the outcome recorded for O=C1NC(O)C(c2c[nH]c3ccccc23)=C1c1c[nH]c2ccccc12 (stereo not given) in this assay.
inactive

Outcome? O=C1CCCCCCCC/C=C\CC(c2ccco2)O1 (stereo not given)
inactive

----------
# Tested on: PC-3 prostate
# assay-explanation: NCI tumour cell line growth inhibition, 48 h
Measured TGI of individual entries

Example compounds with recorded TGI:
>>> result("COc1cc(C2c3cc(O)c(OC)cc3C3OCC2C3CO)ccc1O (centres undefined)")
"> 100 µM"
>>> result("CC(=O)OCC1OC(n2c(-c3ccccc3)c(C(C)=O)c(-c3ccc(Cl)cc3)c(C#N)c2=S)C(OC(C)=O)C(OC(C)=O)C1OC(C)=O (centres undefined)")
"8.46 µM"

Note to self: TGI recorded for CC(=O)[C@@]1(O)CC[C@H]2[C@@H]3C[C@H](C)C4=CC(=O)CC[C@]4(C)[C@H]3[C@@H](O)C[C@@]21C was > 100 µM

Summary for this compound, COc1ccccc1CCN=C1NC(=O)/C(=C/c2ccc3ncccc3c2)S1 : TGI is > 25 µM

----------
# System: SK-MEL-2 melanoma
# assay-explanation: NCI tumour cell line growth inhibition, 48 h
quantity-name: TGI

Some solved cases for reference:
>>> result("Oc1cc(Br)cc2cccnc12")
"> 100 µM"
>>> result("Cc1ccccc1C(=O)c1ccccc1O")
"> 100 µM"
>>> result("O=C1C(=O)c2ccccc2C(O)=C1CC=C(Br)Br")
"30.9 µM"
>>> result("O=c1ccn(C2OC(CO/N=C/c3ccc(O)c(O)c3O)C(O)C2O)c(=O)[nH]1 (stereo unspecified)")
"> 100 µM"
>>> result("COC(=O)c1c2c(c(C)[n+]([O-])c1C)C(=O)C=C(NCc1ccc(F)c(Cl)c1)C2=O")
"2.5 µM"

The record that follows has no TGI shown yet.
// recorded TGI for C=CC(=O)N1CCN(c2nc(=O)n(-c3c(C)ccnc3C(C)C)c3nc(-c4c(O)cccc4F)c(F)cc23)[C@@H](C)C1 : > 78 µM
